Efficacy values for the molecules below.
target: Gamma-aminobutyric acid receptor subunit alpha-1/alpha-6/beta-3/gamma-2 (Rattus norvegicus) (UniProt P18508+P30191+P62813+P63079)
testName: Positive allosteric modulation of rat recombinant GABAA alpha6beta3alpha1-gamma2beta3 receptor expressed in Xenopus laevis oocytes assessed as maximal efficacy at -80 mV holding potential at 30 uM in presence of GABA EC1 to 1.5 by two-electrode voltage-clamp assay
Assay type: cell-based
experimentalConditions: Oocyte, filed as positive allosteric modulator
Express the result in % but write the number alone.

Would you please look over these solved cases?
[
  {
    "querySmiles": "COc1ccc(-n2nc3c4ccc(OC)cc4[nH]cc-3c2=O)cc1",
    "Efficacy [%]": 446
  },
  {
    "querySmiles": "CCc1ccc2c3nn(-c4ccc(OC)cc4)c(=O)c-3c[nH]c2c1",
    "Efficacy [%]": 1510
  }
]

Inquiry: Query (molecule): COc1ccc(-n2nc3c4ccc(C(F)(F)F)cc4[nH]cc-3c2=O)cc1 ; field requested: Efficacy
Reply text: 1570

Inquiry: Query (molecule): COc1ccc(-n2nc3c4ccc(C(C)=O)cc4[nH]cc-3c2=O)cc1 ; field requested: Efficacy
Reply text: 338

Inquiry: Query (molecule): COc1ccc(-n2nc3c4ccc(Br)cc4[nH]cc-3c2=O)cc1 ; field requested: Efficacy
Reply text: 838

---

target: Gamma-aminobutyric acid receptor subunit alpha-1/beta-3/gamma-2 (Rattus norvegicus) (UniProt P18508+P62813+P63079)
testName: Positive allosteric modulation of rat recombinant GABAA alpha1beta3alpha1-gamma2beta3 receptor expressed in Xenopus laevis oocytes assessed as maximal efficacy at -80 mV holding potential at 30 uM in presence of GABA EC1 to 1.5 by two-electrode voltage-clamp assay
Format: cell-based
experimentalConditions: Oocyte, filed as positive allosteric modulator
measurementType: Efficacy (%)
Express the result in % but write the number alone.

[
  {
    "querySmiles": "COc1ccc(-n2nc3c4ccc(C(F)(F)F)cc4[nH]cc-3c2=O)cc1",
    "Efficacy, %": 851
  }
]

Inquiry: Query (molecule): COc1ccc(-n2nc3c4ccc(OC)cc4[nH]cc-3c2=O)cc1 ; field requested: Efficacy
Reply text: 71

Inquiry: Query (molecule): CCc1ccc2c3nn(-c4ccc(OC)cc4)c(=O)c-3c[nH]c2c1 ; field requested: Efficacy
Reply text: 1040

Inquiry: Query (molecule): COc1ccc(-n2nc3c4ccc(Br)cc4[nH]cc-3c2=O)cc1 ; field requested: Efficacy
Reply text: 242

---

target: Gamma-aminobutyric acid receptor subunit alpha-1/beta-3/gamma-2 (Rattus norvegicus, UniProt P18508+P62813+P63079)
Sequence (P18508 whole entry): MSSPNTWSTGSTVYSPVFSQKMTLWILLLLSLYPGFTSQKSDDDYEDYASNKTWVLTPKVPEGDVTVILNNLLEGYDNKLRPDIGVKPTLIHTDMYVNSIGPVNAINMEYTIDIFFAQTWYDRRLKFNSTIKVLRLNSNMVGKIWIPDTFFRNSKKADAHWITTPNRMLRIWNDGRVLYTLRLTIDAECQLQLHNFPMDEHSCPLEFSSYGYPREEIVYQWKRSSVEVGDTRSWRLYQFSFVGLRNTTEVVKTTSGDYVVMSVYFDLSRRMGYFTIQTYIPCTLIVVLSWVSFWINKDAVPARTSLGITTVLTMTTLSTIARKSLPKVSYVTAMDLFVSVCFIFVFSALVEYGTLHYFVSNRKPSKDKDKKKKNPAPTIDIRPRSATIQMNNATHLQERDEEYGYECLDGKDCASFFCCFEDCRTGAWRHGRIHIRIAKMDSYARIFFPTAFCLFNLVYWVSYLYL
Sequence (P62813 whole entry): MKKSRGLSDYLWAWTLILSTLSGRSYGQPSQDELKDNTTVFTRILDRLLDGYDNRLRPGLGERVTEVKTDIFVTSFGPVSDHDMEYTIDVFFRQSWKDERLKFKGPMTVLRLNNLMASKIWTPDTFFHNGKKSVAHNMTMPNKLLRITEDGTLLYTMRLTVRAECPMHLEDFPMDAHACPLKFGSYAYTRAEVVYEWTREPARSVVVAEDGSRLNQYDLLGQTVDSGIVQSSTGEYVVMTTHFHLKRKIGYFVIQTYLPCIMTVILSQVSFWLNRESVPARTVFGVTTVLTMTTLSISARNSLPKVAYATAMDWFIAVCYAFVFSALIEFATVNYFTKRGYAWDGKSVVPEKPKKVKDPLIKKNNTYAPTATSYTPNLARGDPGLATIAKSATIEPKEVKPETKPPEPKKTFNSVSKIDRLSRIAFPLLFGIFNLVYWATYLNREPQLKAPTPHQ
Sequence (P63079 whole entry): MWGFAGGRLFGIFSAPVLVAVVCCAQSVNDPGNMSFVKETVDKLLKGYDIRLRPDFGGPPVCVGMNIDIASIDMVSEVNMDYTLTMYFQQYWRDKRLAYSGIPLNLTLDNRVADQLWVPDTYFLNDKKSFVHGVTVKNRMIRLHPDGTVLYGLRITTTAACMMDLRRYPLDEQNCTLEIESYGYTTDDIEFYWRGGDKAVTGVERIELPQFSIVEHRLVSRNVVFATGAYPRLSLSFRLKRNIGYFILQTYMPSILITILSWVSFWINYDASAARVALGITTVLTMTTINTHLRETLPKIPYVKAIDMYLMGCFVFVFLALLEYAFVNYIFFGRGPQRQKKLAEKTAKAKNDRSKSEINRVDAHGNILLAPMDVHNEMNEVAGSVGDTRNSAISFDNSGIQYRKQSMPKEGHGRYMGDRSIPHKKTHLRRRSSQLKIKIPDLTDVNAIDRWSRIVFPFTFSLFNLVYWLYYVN
testName: Positive allosteric modulation of rat recombinant GABAA alpha1beta3alpha1-gamma2beta3 receptor expressed in Xenopus laevis oocytes assessed as increase in GABA-induced current amplitude at -80 mV holding potential under less potent phase in presence of GABA EC1 to 1.5 by two-electrode voltage-clamp assay
Type: cell-based, Oocyte
measurementType: EC50 (µM)
Express the result in µM but write the number alone.

Inquiry: Query (compound): COc1ccc(-n2nc3c4ccc(Br)cc4[nH]cc-3c2=O)cc1 ; field requested: EC50
Reply text: 10

---

target: Gamma-aminobutyric acid receptor subunit alpha-6/beta-3/gamma-2 (Rattus norvegicus) (UniProt P18508+P30191+P63079)
testName: Positive allosteric modulation of rat recombinant GABAA alpha6beta3alpha6-gamma2beta3 receptor expressed in Xenopus laevis oocytes assessed as maximal efficacy at -80 mV holding potential at 3 nM in presence of GABA EC1 to 1.5 by two-electrode voltage-clamp assay
Type: cell-based
experimentalConditions: Oocyte
Efficacy values for the molecules below.
Express the result in % but write the number alone.

[
  {
    "querySmiles": "COc1ccc(-n2nc3c4ccc(Br)cc4[nH]cc-3c2=O)cc1",
    "measurementType": "Efficacy",
    "unitsLabel": "%",
    "recordedMeasurement": 19
  },
  {
    "querySmiles": "C#Cc1ccc2c3nn(-c4ccc(OC)cc4)c(=O)c-3c[nH]c2c1",
    "measurementType": "Efficacy",
    "unitsLabel": "%",
    "recordedMeasurement": 12
  }
]

--- query ---
Inquiry: Query (molecule): CCc1ccc2c3nn(-c4ccc(OC)cc4)c(=O)c-3c[nH]c2c1 ; field requested: Efficacy
Reply text: 4

---

target: Gamma-aminobutyric acid receptor subunit alpha-6/beta-3/gamma-2 (Rattus norvegicus) (UniProt P18508+P30191+P63079)
testName: Positive allosteric modulation of rat recombinant GABAA alpha6beta3alpha6-gamma2beta3 receptor expressed in Xenopus laevis oocytes assessed as maximal efficacy at -80 mV holding potential at 10 uM in presence of GABA EC1 to 1.5 by two-electrode voltage-clamp assay
Type: cell-based
experimentalConditions: Oocyte, filed as positive allosteric modulator
measurementType: Efficacy (%)
Express the result in % but write the number alone.

Would you please look over these solved cases?
[
  {
    "querySmiles": "COc1ccc(-n2nc3c4ccc(C(C)=O)cc4[nH]cc-3c2=O)cc1",
    "Efficacy / %": 205
  },
  {
    "querySmiles": "COc1ccc(-n2nc3c4ccc(OC)cc4[nH]cc-3c2=O)cc1",
    "Efficacy / %": 400
  },
  {
    "querySmiles": "C#Cc1ccc2c3nn(-c4ccc(OC)cc4)c(=O)c-3c[nH]c2c1",
    "Efficacy / %": 581
  },
  {
    "querySmiles": "COc1ccc(-n2nc3c4ccc(Cl)cc4[nH]cc-3c2=O)cc1",
    "Efficacy / %": 688
  },
  {
    "querySmiles": "COc1ccc(-n2nc3c4ccccc4[nH]cc-3c2=O)cc1",
    "Efficacy / %": 751
  }
]

Inquiry: Query (molecule): COc1ccc(-n2nc3c4ccc(C)cc4[nH]cc-3c2=O)cc1 ; field requested: Efficacy
Reply text: 1020

Inquiry: Query (molecule): COc1ccc(-n2nc3c4ccc(Br)cc4[nH]cc-3c2=O)cc1 ; field requested: Efficacy
Reply text: 621

Inquiry: Query (molecule): COc1ccc(-n2nc3c4ccc(F)cc4[nH]cc-3c2=O)cc1 ; field requested: Efficacy
Reply text: 300

Inquiry: Query (molecule): CCc1ccc2c3nn(-c4ccc(OC)cc4)c(=O)c-3c[nH]c2c1 ; field requested: Efficacy
Reply text: 621

Inquiry: Query (molecule): COc1ccc(-n2nc3c4ccc(C(F)(F)F)cc4[nH]cc-3c2=O)cc1 ; field requested: Efficacy
Reply text: 590

---

target: Gamma-aminobutyric acid receptor subunit alpha-1/alpha-6/beta-3/gamma-2 (Rattus norvegicus) (UniProt P18508+P30191+P62813+P63079)
testName: Positive allosteric modulation of rat recombinant GABAA alpha6beta3alpha1-gamma2beta3 receptor expressed in Xenopus laevis oocytes assessed as maximal efficacy at -80 mV holding potential at 100 nM in presence of GABA EC1 to 1.5 by two-electrode voltage-clamp assay
Type: cell-based
experimentalConditions: Oocyte
measurementType: Efficacy (%)
Express the result in % but write the number alone.

Would you please look over these solved cases?
[
  {
    "querySmiles": "COc1ccc(-n2nc3c4ccc(C(C)=O)cc4[nH]cc-3c2=O)cc1",
    "measurementType": "Efficacy",
    "recordedMeasurement": 3
  },
  {
    "querySmiles": "COc1ccc(-n2nc3c4ccc(C(F)(F)F)cc4[nH]cc-3c2=O)cc1",
    "measurementType": "Efficacy",
    "recordedMeasurement": 5
  },
  {
    "querySmiles": "COc1ccc(-n2nc3c4ccc(Br)cc4[nH]cc-3c2=O)cc1",
    "measurementType": "Efficacy",
    "recordedMeasurement": 18
  }
]

Inquiry: Query (compound): CCc1ccc2c3nn(-c4ccc(OC)cc4)c(=O)c-3c[nH]c2c1 ; field requested: Efficacy
Reply text: 5

---

target: Gamma-aminobutyric acid receptor subunit alpha-6/beta-3/gamma-2 (Rattus norvegicus) (UniProt P18508+P30191+P63079)
testName: Positive allosteric modulation of rat recombinant GABAA alpha6beta3alpha6-gamma2beta3 receptor expressed in Xenopus laevis oocytes assessed as maximal efficacy at -80 mV holding potential at 3 nM in presence of GABA EC1 to 1.5 by two-electrode voltage-clamp assay
Type: cell-based
experimentalConditions: Oocyte
Threshold 20%. Efficacy below it: rule met. Efficacy at it or above: rule not met.

Example entries and their recorded answers appear below.
[
  {
    "querySmiles": "COc1ccc(-n2nc3c4ccc(F)cc4[nH]cc-3c2=O)cc1",
    "assignedClass": "rule met"
  },
  {
    "querySmiles": "COc1ccc(-n2nc3c4ccc(C(F)(F)F)cc4[nH]cc-3c2=O)cc1",
    "assignedClass": "rule not met"
  },
  {
    "querySmiles": "COc1ccc(-n2nc3c4ccc(Cl)cc4[nH]cc-3c2=O)cc1",
    "assignedClass": "rule met"
  }
]

Inquiry: Lab log: compare recorded Efficacy with 20%; is it strictly lower for COc1ccc(-n2nc3c4ccc(C)cc4[nH]cc-3c2=O)cc1 ?
Reply text: rule not met

Inquiry: Lab log: compare recorded Efficacy with 20%; is it strictly lower for COc1ccc(-n2nc3c4ccccc4[nH]cc-3c2=O)cc1 ?
Reply text: rule met

Inquiry: Lab log: compare recorded Efficacy with 20%; is it strictly lower for COc1ccc(-n2nc3c4ccc(C(C)=O)cc4[nH]cc-3c2=O)cc1 ?
Reply text: rule met
